The origin of these recorded values is ChEMBL document CHEMBL3991601.

- subject-of-test: ALK tyrosine kinase receptor (Homo sapiens, UniProt Q9UM73)
- Sequence (Q9UM73 whole entry): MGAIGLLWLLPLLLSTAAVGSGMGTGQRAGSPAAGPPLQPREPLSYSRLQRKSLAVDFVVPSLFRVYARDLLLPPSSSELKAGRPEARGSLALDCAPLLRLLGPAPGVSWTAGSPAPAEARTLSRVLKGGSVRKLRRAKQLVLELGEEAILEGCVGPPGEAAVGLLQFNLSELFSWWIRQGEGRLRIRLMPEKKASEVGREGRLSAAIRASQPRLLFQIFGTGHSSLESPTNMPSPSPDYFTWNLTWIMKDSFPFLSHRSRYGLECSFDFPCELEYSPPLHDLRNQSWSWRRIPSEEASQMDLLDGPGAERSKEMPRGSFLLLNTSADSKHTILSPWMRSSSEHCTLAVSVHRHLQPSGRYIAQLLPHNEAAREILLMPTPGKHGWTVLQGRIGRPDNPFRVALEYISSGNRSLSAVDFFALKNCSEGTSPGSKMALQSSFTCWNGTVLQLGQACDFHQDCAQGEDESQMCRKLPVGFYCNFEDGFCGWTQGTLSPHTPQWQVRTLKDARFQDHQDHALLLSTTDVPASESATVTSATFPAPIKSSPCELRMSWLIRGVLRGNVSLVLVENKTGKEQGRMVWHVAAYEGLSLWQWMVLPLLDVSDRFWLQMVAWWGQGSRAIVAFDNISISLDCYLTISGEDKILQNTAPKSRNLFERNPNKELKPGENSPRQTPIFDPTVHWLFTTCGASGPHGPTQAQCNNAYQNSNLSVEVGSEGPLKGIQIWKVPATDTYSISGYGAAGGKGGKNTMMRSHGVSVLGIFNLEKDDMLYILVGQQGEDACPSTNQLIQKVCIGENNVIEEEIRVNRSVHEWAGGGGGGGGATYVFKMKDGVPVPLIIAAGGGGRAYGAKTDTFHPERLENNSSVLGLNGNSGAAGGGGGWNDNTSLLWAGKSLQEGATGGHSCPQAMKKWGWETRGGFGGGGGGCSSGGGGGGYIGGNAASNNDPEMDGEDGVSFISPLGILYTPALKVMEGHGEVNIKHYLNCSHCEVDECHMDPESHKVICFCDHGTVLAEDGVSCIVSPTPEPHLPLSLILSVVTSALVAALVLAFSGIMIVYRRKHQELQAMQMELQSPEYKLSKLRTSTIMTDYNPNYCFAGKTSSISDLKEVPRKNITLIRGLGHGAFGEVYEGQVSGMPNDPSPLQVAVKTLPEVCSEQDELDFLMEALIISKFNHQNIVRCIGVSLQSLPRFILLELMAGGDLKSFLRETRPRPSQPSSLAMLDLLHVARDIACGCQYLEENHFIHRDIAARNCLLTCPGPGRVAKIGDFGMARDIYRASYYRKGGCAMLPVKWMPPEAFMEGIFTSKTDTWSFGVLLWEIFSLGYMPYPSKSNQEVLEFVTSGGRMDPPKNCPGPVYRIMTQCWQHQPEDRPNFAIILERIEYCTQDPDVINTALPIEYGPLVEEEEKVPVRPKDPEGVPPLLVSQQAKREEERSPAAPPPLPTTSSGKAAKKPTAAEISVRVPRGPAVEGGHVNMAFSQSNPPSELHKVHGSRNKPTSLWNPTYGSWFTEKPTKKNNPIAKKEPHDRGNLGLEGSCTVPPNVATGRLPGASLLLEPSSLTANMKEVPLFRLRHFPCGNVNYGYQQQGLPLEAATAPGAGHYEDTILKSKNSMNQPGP
- Type: subcellular, K-562, COLO 205, SK-N-BE(2) and MV-4-11, Cell lysate
- condition-context: read-out: Kd apparent
The source made the active and inactive calls. On the calls: in the data inactive means no Kd found up to 30 µM.

| molecule | Kd |
| --- | --- |
| CCN1CCN(Cc2ccc(-c3cc4c(N[C@H](C)c5ccccc5)ncnc4[nH]3)cc2)CC1 | > 30 µM (inactive) |
| COC(=O)[C@@]1(O)C[C@H]2O[C@]1(C)n1c3ccccc3c3c4c(c5c6ccccc6n2c5c31)C(=O)NC4 [K-252A] | > 30 µM (inactive) |
| Cc1cc(-c2cc(O)ccc2Cl)cc2nnc(Nc3ccc(OCCN4CCCC4)cc3)nc12 | > 30 µM (inactive) |
| O=C1NC(=O)/C(=C/c2ccc3nccc(-c4ccncc4)c3c2)S1 | > 30 µM (inactive) |
| Cc1ccc(NC(=O)c2ccc(CN3CC[C@H](N(C)C)C3)c(C(F)(F)F)c2)cc1Nc1nccc(-c2cncnc2)n1 | > 30 µM (inactive) |
| COc1cc(CCc2cc(NC(=O)c3ccc(N4C[C@@H](C)N[C@@H](C)C4)cc3)n[nH]2)cc(OC)c1 | > 30 µM (inactive) |
| O=C(Nc1ccc(-c2ccnc(Nc3ccc(N4CCOCC4)cc3)n2)cc1)C1CCCN1 (stereo not drawn) | > 30 µM (inactive) |
| Cc1ccc(S(=O)(=O)Nc2nc3ccccc3nc2Nc2ccc3nsnc3c2)cc1 | > 30 µM (inactive) |

----------
- subject-of-test: Inosine-5'-monophosphate dehydrogenase 2 (Homo sapiens, UniProt P12268)
The source made the active and inactive calls.

| molecule | subject-of-test | Kd |
| --- | --- | --- |
| Cc1ccc(S(=O)(=O)Nc2nc3ccccc3nc2Nc2ccc3nsnc3c2)cc1 | Inosine-5'-monophosphate dehydrogenase 2 (Homo sapiens, UniProt P12268) | > 30 µM (inactive) |
| Cn1ncc(Cl)c1-c1cc(C(=O)N[C@H](CN)Cc2cccc(F)c2)sc1Cl [AFURESERTIB] | Inosine-5'-monophosphate dehydrogenase 2 (Homo sapiens, UniProt P12268) | > 30 µM (inactive) |
| Cc1cc(Nc2cc(N3CCN(C)CC3)nc(/C=C/c3ccccc3)n2)n[nH]1 [ENMD-2076] | Inosine-5'-monophosphate dehydrogenase 2 (Homo sapiens, UniProt P12268) | > 30 µM (inactive) |
| COc1ccc(-c2ccc3c(N4CCOC[C@@H]4C)nc(N4CCOC[C@@H]4C)nc3n2)cc1CO [AZD-8055] | Inosine-5'-monophosphate dehydrogenase 2 (Homo sapiens, UniProt P12268) | > 30 µM (inactive) |
| O=c1sn(-c2cccc3ccccc23)c(=O)n1Cc1ccccc1 [TIDEGLUSIB] | Inosine-5'-monophosphate dehydrogenase 2 (Homo sapiens, UniProt P12268) | > 30 µM (inactive) |
| Cc1cc(-c2cc(O)ccc2Cl)cc2nnc(Nc3ccc(OCCN4CCCC4)cc3)nc12 | Inosine-5'-monophosphate dehydrogenase 2 (Homo sapiens, UniProt P12268) | > 30 µM (inactive) |
| O=C(Nc1ccc(-c2ccnc(Nc3ccc(N4CCOCC4)cc3)n2)cc1)C1CCCN1 (stereo unspecified) [XL-019] | Inosine-5'-monophosphate dehydrogenase 2 (Homo sapiens, UniProt P12268) | > 30 µM (inactive) |
| Cc1cc([C@@H](C)Nc2ccccc2C(=O)O)c2nc(N3CCOCC3)cc(=O)n2c1 [AZD-6482] | Inosine-5'-monophosphate dehydrogenase 2 (Homo sapiens, UniProt P12268) | > 30 µM (inactive) |
| COc1cc2nccc(Oc3ccc(NC(=O)NC4CC4)c(Cl)c3)c2cc1C(N)=O [LENVATINIB] | Inosine-5'-monophosphate dehydrogenase 2 (Homo sapiens, UniProt P12268) | > 30 µM (inactive) |
| CCc1cnn2c(NCc3ccc[n+]([O-])c3)cc(N3CCCC[C@H]3CCO)nc12 [DINACICLIB] | Inosine-5'-monophosphate dehydrogenase 2 (Homo sapiens, UniProt P12268) | > 30 µM (inactive) |
| COC(=O)N[C@@H](C)CNc1nccc(-c2cn(C(C)C)nc2-c2cc(Cl)cc(NS(C)(=O)=O)c2F)n1 [ENCORAFENIB] | Inosine-5'-monophosphate dehydrogenase 2 (Homo sapiens, UniProt P12268) | > 30 µM (inactive) |
| Cc1cn(-c2cc(NC(=O)c3ccc(C)c(Nc4nccc(-c5cccnc5)n4)c3)cc(C(F)(F)F)c2)cn1 [NILOTINIB] | Inosine-5'-monophosphate dehydrogenase 2 (Homo sapiens, UniProt P12268) | > 30 µM (inactive) |
| CNC(=O)c1ccc(C)c(-n2c(C)cc(OCc3ccc(F)cc3F)c(Br)c2=O)c1 [PH-797804] | Inosine-5'-monophosphate dehydrogenase 2 (Homo sapiens, UniProt P12268) | > 30 µM (inactive) |
| CN1CCN(c2ccc3nc(-c4c(N)c5c(F)cccc5[nH]c4=O)[nH]c3c2)CC1 [DOVITINIB] | Inosine-5'-monophosphate dehydrogenase 2 (Homo sapiens, UniProt P12268) | > 30 µM (inactive) |
| CN1CC[C@@H](c2c(O)cc(O)c3c(=O)cc(-c4ccccc4Cl)oc23)[C@@H]1CO | Inosine-5'-monophosphate dehydrogenase 2 (Homo sapiens, UniProt P12268) | > 30 µM (inactive) |
| COc1cc(CCc2cc(NC(=O)c3ccc(N4C[C@@H](C)N[C@@H](C)C4)cc3)n[nH]2)cc(OC)c1 [AZD-4547] | Inosine-5'-monophosphate dehydrogenase 2 (Homo sapiens, UniProt P12268) | > 30 µM (inactive) |
| CC(C)Nc1cc(-c2c[nH]c(C(=O)N[C@H](CO)c3cccc(Cl)c3)c2)c(Cl)cn1 [ULIXERTINIB] | Inosine-5'-monophosphate dehydrogenase 2 (Homo sapiens, UniProt P12268) | > 30 µM (inactive) |
| O=C(c1ccc(F)c(F)c1Nc1ccc(I)cc1F)N1CC(O)([C@@H]2CCCCN2)C1 [COBIMETINIB] | Inosine-5'-monophosphate dehydrogenase 2 (Homo sapiens, UniProt P12268) | > 30 µM (inactive) |
| CCn1c(-c2nonc2N)nc2c(C#CC(C)(C)O)ncc(OC[C@H]3CCCNC3)c21 [GSK-690693] | Inosine-5'-monophosphate dehydrogenase 2 (Homo sapiens, UniProt P12268) | > 30 µM (inactive) |
| Cc1ccc(-n2nc(C(C)(C)C)cc2NC(=O)NCc2cc(F)ccc2Oc2ccc3c(cnn3CCO)c2)cc1 [PEXMETINIB] | Inosine-5'-monophosphate dehydrogenase 2 (Homo sapiens, UniProt P12268) | > 30 µM (inactive) |
| COc1cc2nccc(Oc3ccc(NC(=O)Nc4cc(C)on4)c(Cl)c3)c2cc1OC [TIVOZANIB] | Inosine-5'-monophosphate dehydrogenase 2 (Homo sapiens, UniProt P12268) | > 30 µM (inactive) |
| CC[C@@H]1C(=O)N(C)c2cnc(Nc3ccc(C(=O)N[C@H]4CC[C@H](N5CCN(CC6CC6)CC5)CC4)cc3OC)nc2N1C(C)C [VOLASERTIB] | Inosine-5'-monophosphate dehydrogenase 2 (Homo sapiens, UniProt P12268) | > 30 µM (inactive) |
| CCCS(=O)(=O)Nc1ccc(F)c(C(=O)c2c[nH]c3ncc(-c4ccc(Cl)cc4)cc23)c1F [VEMURAFENIB] | Inosine-5'-monophosphate dehydrogenase 2 (Homo sapiens, UniProt P12268) | > 30 µM (inactive) |
| CO[C@H]1C[C@@H]2CC[C@@H](C)[C@@](O)(O2)C(=O)C(=O)N2CCCC[C@H]2C(=O)O[C@H]([C@H](C)C[C@@H]2CC[C@@H](OCCO)[C@H](OC)C2)CC(=O)[C@H](C)/C=C(\C)[C@@H](O)[C@@H](OC)C(=O)[C@H](C)C[C@H](C)/C=C/C=C/C=C/1C [EVEROLIMUS] | Inosine-5'-monophosphate dehydrogenase 2 (Homo sapiens, UniProt P12268) | > 30 µM (inactive) |
| CNC(=O)c1ccc(-c2cnc3ncc(Cc4ccc5ncccc5c4)n3n2)cc1F [CAPMATINIB] | Inosine-5'-monophosphate dehydrogenase 2 (Homo sapiens, UniProt P12268) | > 30 µM (inactive) |
| C[C@@H](c1ccc2nccn2c1)n1nnc2ncc(-c3cnn(C)c3)nc21 [SAVOLITINIB] | Inosine-5'-monophosphate dehydrogenase 2 (Homo sapiens, UniProt P12268) | > 30 µM (inactive) |
| OCCn1cc(-c2cnc3nnn(Cc4ccc5ncccc5c4)c3n2)cn1 [PF-04217903] | Inosine-5'-monophosphate dehydrogenase 2 (Homo sapiens, UniProt P12268) | > 30 µM (inactive) |
| CNS(=O)(=O)Nc1nccc(Cc2c(C)c3ccc(Oc4ncccn4)cc3oc2=O)c1F [AVUTOMETINIB] | Inosine-5'-monophosphate dehydrogenase 2 (Homo sapiens, UniProt P12268) | > 30 µM (inactive) |
| CCS(=O)(=O)N1CC(CC#N)(n2cc(-c3ncnc4[nH]ccc34)cn2)C1 [BARICITINIB] | Inosine-5'-monophosphate dehydrogenase 2 (Homo sapiens, UniProt P12268) | > 30 µM (inactive) |
| CC(=O)Nc1cccc(-n2c(=O)n(C3CC3)c(=O)c3c(Nc4ccc(I)cc4F)n(C)c(=O)c(C)c32)c1 [TRAMETINIB] | Inosine-5'-monophosphate dehydrogenase 2 (Homo sapiens, UniProt P12268) | > 30 µM (inactive) |
| CN1N=C(N)c2cn([C@@H]3O[C@H](COP(=O)(O)O)[C@@H](O)[C@H]3O)c3ncnc1c23 [TRICIRIBINE PHOSPHATE] | Inosine-5'-monophosphate dehydrogenase 2 (Homo sapiens, UniProt P12268) | > 30 µM (inactive) |
